# Test system: SU-DHL-5
# protocol-notes: Antiproliferative activity against human SuDHL5 cells assessed as inhibition of cell viability incubated for 3 to 5 days by Celltiter-Glo luminescent assay
# Assay type: functional, cell-based
pEC50: −log10 of the molar value.
readout: pEC50

[[record]]
mol_smiles = "CNC(=O)Nc1ccc2c(c1)CC[C@@]21OC(=O)N(CC(=O)N(Cc2ccc(F)cc2)[C@@H](C)C(F)(F)F)C1=O"
assay_value = 6.12


* * *

# target: Serine/threonine-protein kinase 33 (Homo sapiens, UniProt Q9BYT3)
# Sequence (Q9BYT3 whole entry): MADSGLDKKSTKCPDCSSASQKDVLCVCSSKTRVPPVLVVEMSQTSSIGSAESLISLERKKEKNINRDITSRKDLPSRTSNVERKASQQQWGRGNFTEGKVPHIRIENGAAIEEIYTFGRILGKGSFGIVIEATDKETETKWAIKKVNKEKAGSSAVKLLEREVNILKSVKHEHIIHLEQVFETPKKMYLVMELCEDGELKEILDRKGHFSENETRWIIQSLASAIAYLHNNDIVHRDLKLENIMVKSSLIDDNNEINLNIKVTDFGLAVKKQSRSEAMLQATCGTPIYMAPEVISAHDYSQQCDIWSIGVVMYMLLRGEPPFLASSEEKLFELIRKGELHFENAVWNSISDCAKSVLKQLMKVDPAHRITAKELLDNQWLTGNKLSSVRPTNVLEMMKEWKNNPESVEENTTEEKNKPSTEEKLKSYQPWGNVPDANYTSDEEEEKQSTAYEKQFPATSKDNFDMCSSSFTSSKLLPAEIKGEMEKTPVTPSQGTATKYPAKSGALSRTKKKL
readout: IC50

[[record]]
mol_smiles = "CNC(=O)Nc1ccc2c(c1)CC[C@@]21OC(=O)N(CC(=O)N(Cc2ccc(F)cc2)[C@@H](C)C(F)(F)F)C1=O"
assay_value = "> 10 µM"


* * *

# target: Rho-associated protein kinase 1 (Homo sapiens)
# Sequence (Q13464 whole entry): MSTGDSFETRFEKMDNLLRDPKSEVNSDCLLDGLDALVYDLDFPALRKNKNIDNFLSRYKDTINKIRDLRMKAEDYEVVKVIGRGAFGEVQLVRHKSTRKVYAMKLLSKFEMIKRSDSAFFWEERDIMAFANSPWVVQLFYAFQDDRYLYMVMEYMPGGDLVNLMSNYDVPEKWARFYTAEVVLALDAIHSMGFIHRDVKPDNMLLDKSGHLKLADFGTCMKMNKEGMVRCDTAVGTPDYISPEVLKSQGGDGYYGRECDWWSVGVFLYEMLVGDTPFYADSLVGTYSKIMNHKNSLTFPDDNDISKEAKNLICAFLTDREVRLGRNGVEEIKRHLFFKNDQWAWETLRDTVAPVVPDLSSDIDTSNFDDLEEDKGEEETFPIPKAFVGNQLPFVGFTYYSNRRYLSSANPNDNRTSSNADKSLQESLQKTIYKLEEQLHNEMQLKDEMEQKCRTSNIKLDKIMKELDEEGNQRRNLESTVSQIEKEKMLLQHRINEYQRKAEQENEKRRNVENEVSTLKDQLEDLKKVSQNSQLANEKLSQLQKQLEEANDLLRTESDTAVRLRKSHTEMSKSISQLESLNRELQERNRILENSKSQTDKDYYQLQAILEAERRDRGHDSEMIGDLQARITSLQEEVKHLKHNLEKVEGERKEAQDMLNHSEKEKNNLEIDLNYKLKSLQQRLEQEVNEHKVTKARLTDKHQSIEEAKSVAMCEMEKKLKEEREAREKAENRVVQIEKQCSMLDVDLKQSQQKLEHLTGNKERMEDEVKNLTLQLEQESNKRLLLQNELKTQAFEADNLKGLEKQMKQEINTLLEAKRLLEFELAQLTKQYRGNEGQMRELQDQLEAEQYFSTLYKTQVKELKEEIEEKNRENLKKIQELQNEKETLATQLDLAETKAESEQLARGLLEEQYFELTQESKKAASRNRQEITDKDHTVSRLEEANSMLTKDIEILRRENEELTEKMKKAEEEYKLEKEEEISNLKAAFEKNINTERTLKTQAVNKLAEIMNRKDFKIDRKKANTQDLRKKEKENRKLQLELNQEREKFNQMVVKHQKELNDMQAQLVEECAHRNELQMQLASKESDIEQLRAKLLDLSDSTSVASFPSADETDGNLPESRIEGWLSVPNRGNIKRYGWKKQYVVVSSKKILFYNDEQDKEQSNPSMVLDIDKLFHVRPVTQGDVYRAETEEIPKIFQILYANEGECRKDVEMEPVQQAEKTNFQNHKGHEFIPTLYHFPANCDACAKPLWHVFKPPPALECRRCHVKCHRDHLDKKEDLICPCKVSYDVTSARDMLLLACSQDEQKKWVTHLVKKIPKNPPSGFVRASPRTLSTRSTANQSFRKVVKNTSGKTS
pIC50: −log10 of the molar value.
readout: pIC50

[[record]]
mol_smiles = "CNC(=O)Nc1ccc2c(c1)CC[C@@]21OC(=O)N(CC(=O)N(Cc2ccc(F)cc2)[C@@H](C)C(F)(F)F)C1=O"
assay_value = "< 5.00"


* * *

# Test system: RCK8
# protocol-notes: Antiproliferative activity against human RCK8 cells assessed as inhibition of cell viability incubated for 3 to 5 days by Celltiter-Glo luminescent assay
# Type: functional, cell-based
readout: EC50 (nM)

[[record]]
molecule = "CNC(=O)Nc1ccc2c(c1)CC[C@@]21OC(=O)N(CC(=O)N(Cc2ccc(F)cc2)[C@@H](C)C(F)(F)F)C1=O [A-485]"
unit_spec = "nM"
assay_value = 590


* * *

# Tested on: NU-DUL-1
# protocol-notes: Antiproliferative activity against human NU-DUL-1 cells assessed as inhibition of cell viability incubated for 3 to 5 days by Celltiter-Glo luminescent assay
# Type: functional, cell-based
pEC50: −log10 of the molar value.
readout: pEC50

[[record]]
mol_smiles = "CNC(=O)Nc1ccc2c(c1)CC[C@@]21OC(=O)N(CC(=O)N(Cc2ccc(F)cc2)[C@@H](C)C(F)(F)F)C1=O"
readout = "pEC50"
assay_value = 6.32


* * *

# target: Calcium/calmodulin-dependent protein kinase type 1D (Homo sapiens)
# Sequence (Q8IU85 whole entry): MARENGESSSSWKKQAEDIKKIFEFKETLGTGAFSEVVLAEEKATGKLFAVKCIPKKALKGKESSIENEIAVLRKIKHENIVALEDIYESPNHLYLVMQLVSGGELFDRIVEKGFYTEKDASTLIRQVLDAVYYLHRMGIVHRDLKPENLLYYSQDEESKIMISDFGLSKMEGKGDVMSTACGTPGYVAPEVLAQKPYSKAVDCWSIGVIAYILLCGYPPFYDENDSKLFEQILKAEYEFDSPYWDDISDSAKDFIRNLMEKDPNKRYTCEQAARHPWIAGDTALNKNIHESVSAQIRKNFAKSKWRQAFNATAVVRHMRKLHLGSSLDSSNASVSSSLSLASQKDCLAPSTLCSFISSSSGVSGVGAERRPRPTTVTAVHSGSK
# protocol-notes: Inhibition of CAMK1D (unknown origin)
pIC50: −log10 of the molar value.
readout: pIC50

[[record]]
compound = "CNC(=O)Nc1ccc2c(c1)CC[C@@]21OC(=O)N(CC(=O)N(Cc2ccc(F)cc2)[C@@H](C)C(F)(F)F)C1=O [A-485]"
readout = "pIC50"
assay_value = "< 5.00"


* * *

# target: Serine/threonine-protein kinase TAO2 (Homo sapiens)
# Sequence (Q9UL54 whole entry): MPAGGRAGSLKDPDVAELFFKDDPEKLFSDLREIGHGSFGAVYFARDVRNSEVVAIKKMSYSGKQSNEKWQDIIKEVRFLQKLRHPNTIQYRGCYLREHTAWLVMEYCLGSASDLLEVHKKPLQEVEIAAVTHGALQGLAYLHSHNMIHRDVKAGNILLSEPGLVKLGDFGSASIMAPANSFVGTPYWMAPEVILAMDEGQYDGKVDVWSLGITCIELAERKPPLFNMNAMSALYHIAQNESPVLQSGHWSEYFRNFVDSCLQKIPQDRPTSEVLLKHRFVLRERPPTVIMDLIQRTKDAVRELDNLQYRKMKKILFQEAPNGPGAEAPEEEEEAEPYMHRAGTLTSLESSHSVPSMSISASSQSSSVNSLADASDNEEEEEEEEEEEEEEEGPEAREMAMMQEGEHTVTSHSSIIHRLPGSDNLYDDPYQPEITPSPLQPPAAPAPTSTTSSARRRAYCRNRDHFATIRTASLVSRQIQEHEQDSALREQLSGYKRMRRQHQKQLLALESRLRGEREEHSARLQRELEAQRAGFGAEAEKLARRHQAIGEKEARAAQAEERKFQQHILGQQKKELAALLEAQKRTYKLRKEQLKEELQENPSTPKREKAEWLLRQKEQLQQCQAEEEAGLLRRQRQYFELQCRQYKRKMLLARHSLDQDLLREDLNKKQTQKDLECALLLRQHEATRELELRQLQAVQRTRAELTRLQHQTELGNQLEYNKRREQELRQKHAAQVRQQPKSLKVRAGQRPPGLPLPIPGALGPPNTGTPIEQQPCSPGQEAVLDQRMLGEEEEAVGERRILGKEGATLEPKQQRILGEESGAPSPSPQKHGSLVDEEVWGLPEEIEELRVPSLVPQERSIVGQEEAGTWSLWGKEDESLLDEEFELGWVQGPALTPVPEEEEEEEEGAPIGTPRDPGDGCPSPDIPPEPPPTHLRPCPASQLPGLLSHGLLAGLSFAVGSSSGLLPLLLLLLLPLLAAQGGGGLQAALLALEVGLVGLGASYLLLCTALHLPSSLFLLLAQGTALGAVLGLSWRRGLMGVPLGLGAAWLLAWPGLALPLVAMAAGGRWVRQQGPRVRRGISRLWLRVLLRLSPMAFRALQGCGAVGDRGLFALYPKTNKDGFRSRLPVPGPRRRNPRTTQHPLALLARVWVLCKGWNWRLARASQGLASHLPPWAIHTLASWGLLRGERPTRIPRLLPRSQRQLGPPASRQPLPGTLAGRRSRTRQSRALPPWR
pIC50: −log10 of the molar value.
readout: pIC50

[[record]]
mol_smiles = "CNC(=O)Nc1ccc2c(c1)CC[C@@]21OC(=O)N(CC(=O)N(Cc2ccc(F)cc2)[C@@H](C)C(F)(F)F)C1=O"
target = "Serine/threonine-protein kinase TAO2 (Homo sapiens)"
assay_value = "< 5.00"


* * *

# target: Mitogen-activated protein kinase kinase kinase kinase 2 (Homo sapiens)
# Sequence (Q12851 whole entry): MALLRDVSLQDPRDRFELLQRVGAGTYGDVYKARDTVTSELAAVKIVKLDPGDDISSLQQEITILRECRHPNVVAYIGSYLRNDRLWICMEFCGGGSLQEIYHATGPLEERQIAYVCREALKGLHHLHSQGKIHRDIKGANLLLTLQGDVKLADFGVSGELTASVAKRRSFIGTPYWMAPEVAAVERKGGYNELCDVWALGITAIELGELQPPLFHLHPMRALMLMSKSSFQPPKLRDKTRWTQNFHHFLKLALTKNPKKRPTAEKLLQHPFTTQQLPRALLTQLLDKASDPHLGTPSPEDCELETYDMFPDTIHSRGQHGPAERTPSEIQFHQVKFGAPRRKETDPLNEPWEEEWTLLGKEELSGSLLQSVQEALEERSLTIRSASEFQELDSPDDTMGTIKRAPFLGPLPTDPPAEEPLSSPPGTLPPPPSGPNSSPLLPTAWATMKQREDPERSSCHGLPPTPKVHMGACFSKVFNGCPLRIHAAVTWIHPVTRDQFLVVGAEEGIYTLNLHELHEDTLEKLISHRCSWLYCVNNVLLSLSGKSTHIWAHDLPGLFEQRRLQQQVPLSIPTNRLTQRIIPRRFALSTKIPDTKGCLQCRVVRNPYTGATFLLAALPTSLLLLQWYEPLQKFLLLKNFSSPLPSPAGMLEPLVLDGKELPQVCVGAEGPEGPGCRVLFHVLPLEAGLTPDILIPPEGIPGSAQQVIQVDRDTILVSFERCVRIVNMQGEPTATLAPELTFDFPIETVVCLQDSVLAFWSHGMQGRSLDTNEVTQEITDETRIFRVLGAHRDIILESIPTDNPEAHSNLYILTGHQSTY
# protocol-notes: Inhibition of MAP4K2 (unknown origin)
pIC50: −log10 of the molar value.
readout: pIC50

[[record]]
compound = "CNC(=O)Nc1ccc2c(c1)CC[C@@]21OC(=O)N(CC(=O)N(Cc2ccc(F)cc2)[C@@H](C)C(F)(F)F)C1=O [A-485]"
target = "Mitogen-activated protein kinase kinase kinase kinase 2 (Homo sapiens)"
assay_value = "< 5.00"


Hello, the source for this data is ChEMBL document CHEMBL5649168, in case you need it.
